# Tested on: SK-MEL-2 melanoma
# PROTOCOL_TEXT: NCI tumour cell line growth inhibition, 48 h
Classification field: yes = TGI at or over 30 µM; no = TGI under 30 µM.

These recorded examples may help you get a feel for the data.
{"COMPOUND": "COc1cc(/C=C/C(=O)c2cccc(-n3cc(-c4ccccc4)[nH]c3=O)c2)cc(OC)c1OC", "ASSIGNED_LABEL": "no"}
{"COMPOUND": "CC(C#N)(c1ccccc1)N(CCc1ccccc1)C(=O)Oc1ccccc1 (stereo not drawn)", "ASSIGNED_LABEL": "yes"}
{"COMPOUND": "NS(=O)(=O)c1ccc(N(/C=C/C(=O)C(F)(F)F)CC(=O)c2ccc(F)cc2)cc1", "ASSIGNED_LABEL": "yes"}
{"COMPOUND": "COc1cc2cc(NCc3cccc(Cl)c3)nc(C)c2cc1OC", "ASSIGNED_LABEL": "no"}
{"COMPOUND": "COc1ccc(/C=C/C(=O)c2cc(OC)cc(OC)c2)cc1", "ASSIGNED_LABEL": "yes"}

Confirm if TGI reported for the compound COC(=O)C(=O)C(C#N)c1nc2ccccc2s1 (stereo not drawn) is 30 µM or above. yes

What do you get for "Cc1cn([C@@H]2O[C@H](CO[Si](C)(C)C(C)(C)C)[C@]3(O[C@H]3C(=O)NO)[C@H]2O[Si](C)(C)C(C)(C)C)c(=O)[nH]c1=O" ? no
